Hey, just so you know, these numbers are from paper PMC5540273.

# System: TYK2(JH2domain-pseudokinase);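 further: KINOMEscan kinase panel screen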
# stated.conditions: concentration: 1 μM, replicates: in singlicate; n = 1
%Inh reference
observation.type: %Inh (%)

>>> observed_measurement("CCn1c(-c2nonc2N)nc2c(C#CC(C)(C)O)ncc(OCCCCN)c21.O=C(O)C(F)(F)F.O=C(O)C(F)(F)F")
29
>>> observed_measurement("Cl.Cl.NCC(NCc1ccc(-c2ccnc3[nH]ccc23)s1)c1ccccc1 (stereo not drawn)")
43
>>> observed_measurement("Cc1occc1-c1ncc(OC[C@@H](N)Cc2c[nH]c3ccccc23)cc1-c1ccc2[nH]nc(C)c2c1.O=C(O)C(F)(F)F")
0
>>> observed_measurement("C[C@@H](Oc1cc(-n2cnc3cc(-c4ccnc(NCCS(C)(=O)=O)c4)ccc32)sc1C(N)=O)c1ccccc1Cl")
0
>>> observed_measurement("CN1CCN(Cc2cccc(-c3ccc4c(Nc5ccc(Oc6ccccc6)cc5)ccnc4c3)c2)CC1")
5
>>> observed_measurement("COc1cc(Nc2nccc(N3CCC(NC(=O)c4cc5ccccc5s4)C3)n2)cc(OC)c1OC (stereo not drawn)")
6
>>> observed_measurement("COc1cccc(-c2ccc3c(NC(=O)C4CC4)n[nH]c3n2)c1")
64
>>> observed_measurement("COc1ccc(-c2coc3ccc(-c4nnc(SCc5ccc(OC)c(C(F)(F)F)c5)o4)cc23)cc1")
1
>>> observed_measurement("COc1cc(Nc2nccc(-c3c(-c4cccc(NC(=O)c5c(F)cccc5F)c4)nn4ccccc34)n2)cc(OC)c1OC")
0
>>> observed_measurement("Cn1cc(-c2ccc3c(c2)CCN3C(=O)Cc2cccc(F)c2)c2c(N)ncnc21")
64
>>> observed_measurement("Cl.Cl.NCC(NC(=O)c1cc(-c2ccccc2)c(-c2ccnc3[nH]ccc23)s1)c1ccccc1 (stereo not drawn)")
2
>>> observed_measurement("O=C(Nc1n[nH]c2nc(-c3ccc(O)cc3)ccc12)C1CC1")
0
>>> observed_measurement("O=C(Nc1ccccc1F)NC1CCN(c2ccnc(Nc3ccc(F)cc3)n2)CC1")
43
>>> observed_measurement("Nc1n[nH]c2cnc(-c3ccccc3)cc12")
85
>>> observed_measurement("CN(C)Cc1ccc(-c2ccc3c(Nc4ccc(Oc5ccccn5)cc4)ccnc3c2)o1")
18
>>> observed_measurement("c1ccc(-c2n[nH]cc2Nc2ccnc3ccccc23)nc1")
96.6
>>> observed_measurement("Nc1ncc(-c2ccc3nccc(-c4ccncc4)c3c2)cc1S(=O)(=O)N1CCOCC1")
21
>>> observed_measurement("O=C(Nc1cccc(Oc2ccc3nc(NC(=O)C4CC4)cn3n2)c1)c1ccccc1C(F)(F)F")
0
>>> observed_measurement("CN1CCN(CCCNc2nccc(-c3c(-c4ccc(F)cc4)nn4cc(C(F)(F)F)ccc34)n2)CC1")
12
>>> observed_measurement("COC(=O)Nc1nc2ccc(Oc3ccc(NC(=O)Nc4cc(C(F)(F)F)ccc4F)cc3)cc2n1C.Cl")
18
>>> observed_measurement("Cc1ccc(C(=O)N2CC[C@@H](O)C2)cc1-n1c(C)cc(OCc2ccc(F)cc2F)c(Br)c1=O")
0
